Tested on: HIF-1-mediated transcription
Test protocol: HIF-1-mediated transcription under hypoxia, LN229-HRE-Lux luciferase reporter assay
Assay type: cell-based, human
Experimental setup: Homo sapiens, unit inferred; LN229-HRE-Lux cells, hypoxia (1% O2); read-out: IC50
Assay metric: pIC50
Conceptually, pIC50 converts a concentration in mol/L into minus its log10.

Notebook: COc1ccc(S(=O)(=O)N(Cc2ccc3c(n2)C=CC(C)(C)O3)c2ccccc2)cc1OC [Compound 26a] , pIC50 read as 5.89

###

The reader will find reported log10 IC50 values listed item by item below.
System: HIF-1-mediated transcription
Test protocol: HIF-1-mediated transcription under hypoxia, LN229-HRE-Lux luciferase reporter assay
Type: cell-based, human
Experimental setup: Homo sapiens, 24 h, Table 5; LN229-HRE-Lux cells, hypoxia (1% O2), 24 h; read-out: IC50
Method: The synthesized analogues were evaluated for their potential to inhibit HIF-1-mediated transcription under hypoxia (1% O2) using a human glioma cell line LN229-HRE-Lux, which stably expresses a hypoxia-responsive luciferase reporter gene (Table 1-9). […] The compounds were tested in single (n=1) or multiple (n>1) independent experiments each carried out in quadruplicate. LN229-HRE-luciferase human glioblastoma cells were used to perform the assay. […]
Note the log scale: values are log10 of IC50 expressed in nM.

See these solved cases before continuing.
{"Molecule": "COc1ccc(S(=O)(=O)N(Cc2ccc3c(c2)CC(C)(C)O3)c2ccccc2)cc1OC [Compound 16a]", "log10 IC50": 2.70}
{"Molecule": "COc1ccc(S(=O)(=O)N(Cc2ccc3c(c2)CC(C)(C)O3)C2CCCCCC2)cc1OC [Compound 16b]", "log10 IC50": 3.96}
{"Molecule": "COc1ccc(S(=O)(=O)N(Cc2ccc3c(c2)CC(C)(C)O3)C2CCCC2)cc1OC [Compound 16f]", "log10 IC50": 2.60}
{"Molecule": "COc1ccc(S(=O)(=O)N(Cc2ccc3c(c2)CC(C)(C)O3)C(C)C)cc1OC [Compound 16c]", "log10 IC50": 3.18}

Attention now shifts to the item below.
Input CCCCN(Cc1ccc2c(c1)CC(C)(C)O2)S(=O)(=O)c1ccc(OC)c(OC)c1 [Compound 16d] . Output log10 IC50: 2.78

Sourced from patent US9062072B2
